- tested-target: human μ-opiate receptor (Homo sapiens, UniProt P35372)
- Sequence (P35372 whole entry): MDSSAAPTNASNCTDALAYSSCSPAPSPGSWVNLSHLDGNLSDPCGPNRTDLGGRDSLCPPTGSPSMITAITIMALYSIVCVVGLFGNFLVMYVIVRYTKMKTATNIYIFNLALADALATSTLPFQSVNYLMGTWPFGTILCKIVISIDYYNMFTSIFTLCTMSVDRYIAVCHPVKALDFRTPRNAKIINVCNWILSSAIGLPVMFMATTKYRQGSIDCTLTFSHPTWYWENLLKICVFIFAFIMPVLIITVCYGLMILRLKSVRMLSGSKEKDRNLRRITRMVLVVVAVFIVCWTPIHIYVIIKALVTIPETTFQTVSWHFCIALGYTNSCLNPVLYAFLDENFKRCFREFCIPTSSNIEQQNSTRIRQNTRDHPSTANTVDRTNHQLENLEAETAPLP
- experiment: Affinity for the human μ-opiate receptor ([3H]-naloxone displacement, SPA, CHO-K1 membrane preparation)
- Assay type: binding
- protocol-conditions: read-out: μ-Opioid receptor, % inhibition [1 μM]
The following ranges of inhibition at 1 µM define the classes used here: lower bin: < 80%; middle bin: ≥ 80% and < 90%; upper bin: ≥ 90%

CCCc1ccc(C(=O)NCC2CCC(C(c3cccs3)N(C)C)CC2)cc1 (centres unmarked) ... middle bin
CN(C)C(c1cccs1)C1CCC(CNC(=O)Cc2cccs2)CC1 (centres unmarked) ... upper bin
CN(C)C(c1ccccc1)C1CCC(CCNC(=O)c2cccc(Cl)c2)CC1 (single isomer, unassigned) ... upper bin
CN(C)C(c1cccs1)C1CCC(CCNC(=O)c2ccccc2F)CC1 (centres unmarked) ... upper bin
CN(C)C(c1ccc(Cl)cc1)C1CCC(CNC(=O)C(c2ccccc2)c2ccccc2)CC1 (centres unmarked) ... upper bin
CN(C)C(c1cccc(F)c1)C1CCC(NC(=O)c2ccc3nsnc3c2)CC1 (centres unmarked) ... lower bin
Cc1cccc(C(=O)NCCC2CCC(C(c3cccc(F)c3)N(C)C)CC2)c1 (centres unmarked) ... upper bin
CN(C)C(c1ccccc1)C1CCC(CNC(=O)c2cccnc2Oc2ccc(Cl)cc2)CC1 (single isomer, unassigned) ... middle bin

Assign a bin to CN(C)C(c1ccccc1)C1CCC(CNC(=O)c2ccc(Cl)cc2Cl)CC1 (centres unmarked) middle bin

Assign a bin to Cc1nc(-c2ccc3c(c2)CCO3)sc1C(=O)NC1CCC(C(c2cccs2)N(C)C)CC1 (centres unmarked) lower bin
